- TEST METHOD NOTES: Phase 1 plasma pharmacokinetics in healthy subjects
- Format: in vivo, human
- TEST SETTINGS: human, po, 32 mg; plasma total methylprednisolone; Day 1; mean (SD)
QUANTITY MEASURED: AUC(0-inf) (ng·h/mL)
Give bare numbers, in ng·h/mL.

Field AUC(0-inf) (entry C[C@H]1C[C@@H]2[C@H]([C@@H](O)C[C@@]3(C)[C@H]2CC[C@]3(O)C(=O)CO)[C@@]2(C)C=CC(=O)C=C12 [Methylprednisolone, methylprednisolone] ) reads 1030

###

- TEST METHOD NOTES: Phase 1 plasma pharmacokinetics in healthy subjects
- Type: in vivo, human
- TEST SETTINGS: human, oral, 32 mg; plasma total methylprednisolone; Day 1; median (min, max)
QUANTITY MEASURED: Tmax (h)
Give bare numbers, in h.

Tmax recorded for this compound, C[C@H]1C[C@@H]2[C@H]([C@@H](O)C[C@@]3(C)[C@H]2CC[C@]3(O)C(=O)CO)[C@@]2(C)C=CC(=O)C=C12 [Methylprednisolone, methylprednisolone] , is 2

###

- TEST METHOD NOTES: Phase 1 plasma pharmacokinetics in healthy subjects
- Assay type: in vivo, human
- TEST SETTINGS: human, plasma, oral, 32 mg, plasma total methylprednisolone; Day 4; mean (SD); read-out: AUC0-24
QUANTITY MEASURED: AUC(0-t) (ng·h/mL)
Give bare numbers, in ng·h/mL.

GET /value?item= C[C@H]1C[C@@H]2[C@H]([C@@H](O)C[C@@]3(C)[C@H]2CC[C@]3(O)C(=O)CO)[C@@]2(C)C=CC(=O)C=C12 &field=AUC(0-t) returns 1110

###

- TEST METHOD NOTES: Phase 1 plasma pharmacokinetics in healthy subjects
- Type: in vivo, human
- TEST SETTINGS: human, plasma, oral, 32 mg, plasma free methylprednisolone; Day 1; n = 1; read-out: AUC0-24
- Procedure: Baseline demographics were collected during the screening period between study Day −28 and Day −3. Subjects remained at the clinic from 2 days before the first dose of study drug (Day-2) until study Day 8. […] The plasma total and free methylprednisolone were determined using a validated LC-MS/MS method developed by Syneos Health (Quebec City, Quebec, Canada). […] Quantitative analysis was accomplished on an ACE Excel 2 C18-PFP (50×3.0 mm, 2 μm) column. […]
QUANTITY MEASURED: AUC(0-t) (ng·h/mL)
Numbers only, in ng·h/mL.

For reference, reported AUC(0-t) for C[C@H]1C[C@@H]2[C@H]([C@@H](O)C[C@@]3(C)[C@H]2CC[C@]3(O)C(=O)CO)[C@@]2(C)C=CC(=O)C=C12 stands at 176

###

- TEST METHOD NOTES: Phase 1 plasma pharmacokinetics in healthy subjects
- Assay type: in vivo, human
- TEST SETTINGS: human, plasma, oral, 32 mg, plasma free methylprednisolone; Day 4; n = 1; read-out: AUC0-24
QUANTITY MEASURED: AUC(0-t) (ng·h/mL)
Numbers only, in ng·h/mL.

// field: AUC(0-t); key: C[C@H]1C[C@@H]2[C@H]([C@@H](O)C[C@@]3(C)[C@H]2CC[C@]3(O)C(=O)CO)[C@@]2(C)C=CC(=O)C=C12 ; value = 145

###

- TEST METHOD NOTES: Phase 1 plasma pharmacokinetics in healthy subjects
- Assay type: in vivo, human
- TEST SETTINGS: human, oral, 32 mg; plasma free methylprednisolone; Day 1; mean (SD)
QUANTITY MEASURED: AUC(0-inf) (µg·h/mL)
Answers are plain numbers, in µg·h/mL.

Form field AUC(0-inf), entry C[C@H]1C[C@@H]2[C@H]([C@@H](O)C[C@@]3(C)[C@H]2CC[C@]3(O)C(=O)CO)[C@@]2(C)C=CC(=O)C=C12 : 0.106

###

- TEST METHOD NOTES: Phase 1 plasma pharmacokinetics in healthy subjects
- Assay type: in vivo, human
- TEST SETTINGS: human, plasma, oral, 32 mg, plasma total methylprednisolone; Day 4; mean (SD)
QUANTITY MEASURED: half-life (h)
Answers are plain numbers, in h.

Looking up C[C@H]1C[C@@H]2[C@H]([C@@H](O)C[C@@]3(C)[C@H]2CC[C@]3(O)C(=O)CO)[C@@]2(C)C=CC(=O)C=C12 [Methylprednisolone, methylprednisolone] , I see its half-life listed as 2.4

###

- TEST METHOD NOTES: Phase 1 plasma pharmacokinetics in healthy subjects
- Assay type: in vivo, human
- TEST SETTINGS: human, plasma, po, 32 mg, plasma total methylprednisolone; Day 1; mean (SD); read-out: AUC0-24
QUANTITY MEASURED: AUC(0-t)
# include the unit after the value

C[C@H]1C[C@@H]2[C@H]([C@@H](O)C[C@@]3(C)[C@H]2CC[C@]3(O)C(=O)CO)[C@@]2(C)C=CC(=O)C=C12 [Methylprednisolone, methylprednisolone] yielded AUC(0-t) of 1330 ng·h/mL

###

- TEST METHOD NOTES: Phase 1 plasma pharmacokinetics in healthy subjects
- Assay type: in vivo, human
- TEST SETTINGS: human, plasma, po, 32 mg, plasma total methylprednisolone; Day 1; mean (SD); read-out: AUC0-last
QUANTITY MEASURED: AUC(0-t) (ng·h/mL)
Give bare numbers, in ng·h/mL.

Record summary for C[C@H]1C[C@@H]2[C@H]([C@@H](O)C[C@@]3(C)[C@H]2CC[C@]3(O)C(=O)CO)[C@@]2(C)C=CC(=O)C=C12 : reported AUC(0-t) = 1020

###

- TEST METHOD NOTES: Phase 1 plasma pharmacokinetics in healthy subjects
- Type: in vivo, human
- TEST SETTINGS: human, plasma, oral, 32 mg, plasma free methylprednisolone; Day 4; mean (SD)
QUANTITY MEASURED: Cmax (ng/mL)
Answers are plain numbers, in ng/mL.

The recorded Cmax for C[C@H]1C[C@@H]2[C@H]([C@@H](O)C[C@@]3(C)[C@H]2CC[C@]3(O)C(=O)CO)[C@@]2(C)C=CC(=O)C=C12 [Methylprednisolone, methylprednisolone] is 21.9

###

- TEST METHOD NOTES: Phase 1 plasma pharmacokinetics in healthy subjects
- Type: in vivo, human
- TEST SETTINGS: human, plasma, oral, 32 mg, plasma free methylprednisolone; Day 1; mean (SD); read-out: AUC0-last
QUANTITY MEASURED: AUC(0-t) (ng·h/mL)
One number for each entry, in ng·h/mL.

// C[C@H]1C[C@@H]2[C@H]([C@@H](O)C[C@@]3(C)[C@H]2CC[C@]3(O)C(=O)CO)[C@@]2(C)C=CC(=O)C=C12 : AUC(0-t) value = 104
